molecular target: T1, cyno EpCAM (recombinant, ELISA antigen) (cynomolgus monkey); assay: ELISA, cyno EpCAM, pH 7.4
T1 construct: extracellular domain; also called cynomolgus EpCAM extracellular domain
T1 sequence (Q1WER1 24-265): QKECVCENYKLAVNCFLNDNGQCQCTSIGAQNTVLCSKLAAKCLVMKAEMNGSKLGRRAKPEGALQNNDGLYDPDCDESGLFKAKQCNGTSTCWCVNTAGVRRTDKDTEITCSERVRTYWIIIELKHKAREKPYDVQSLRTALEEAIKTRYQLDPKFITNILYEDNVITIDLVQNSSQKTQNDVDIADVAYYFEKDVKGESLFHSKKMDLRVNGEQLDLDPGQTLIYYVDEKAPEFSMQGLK
quantity_kind: EC50 (µg/mL)
Form entry: value (µg/mL) — number only.

# binder, EC50 / µg/mL
records = [
    ("BAP-105.4-01-05 (antibody, V domains shown, Humanized) VH: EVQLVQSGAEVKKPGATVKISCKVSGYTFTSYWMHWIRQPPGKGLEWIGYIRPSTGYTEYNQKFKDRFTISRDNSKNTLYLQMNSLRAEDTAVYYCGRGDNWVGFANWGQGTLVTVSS VL: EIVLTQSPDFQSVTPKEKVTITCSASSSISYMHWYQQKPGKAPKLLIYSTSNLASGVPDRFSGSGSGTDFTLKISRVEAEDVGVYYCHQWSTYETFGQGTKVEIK", 7.17),
]

Could you now look at the following binder, please?
Please look at this binder and report its EC50: BAP-105.4-01-02 (antibody, V domains shown, Humanized) VH: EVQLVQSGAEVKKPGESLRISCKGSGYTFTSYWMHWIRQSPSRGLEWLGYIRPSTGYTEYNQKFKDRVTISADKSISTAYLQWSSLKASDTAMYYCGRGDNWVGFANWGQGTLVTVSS VL: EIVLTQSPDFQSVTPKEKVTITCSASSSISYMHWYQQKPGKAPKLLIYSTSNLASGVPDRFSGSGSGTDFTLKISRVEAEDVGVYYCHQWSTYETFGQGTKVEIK 0.208
